- Tested on: blackgrass
- experiment notes: Test C pre-/postemergence herbicide test
- Type: in vivo, Alopecurus myosuroides
- reported conditions: Postemergence; 250 g ai/ha; scale 0 to 100 (0 no effect, 100 complete control)
endpoint label: Plant response rating, Blackgrass
Please give the numeric answer without any surrounding text.

Observe how each entry below is paired with its result.
{"columns": ["compound", "endpoint result"],
 "data": [
  ["CN1CC(c2cccc(C(F)(F)F)c2)C(C(=O)Nc2cccc(F)c2F)C1=O (stereo not drawn)", 10],
  ["O=C1NC[C@H](c2cccc(C(F)(F)F)c2)[C@H]1C(=O)Nc1cccc(F)c1F", 60],
  ["O=C1NCC(c2ccc(C(F)(F)F)cc2)C1C(=O)Nc1cccc(F)c1F (racemic)", 10],
  ["CN1CC(c2ccc(C(F)(F)F)cc2)C(C(=O)Nc2cccc(F)c2F)C1=O (stereo not drawn)", 5],
  ["O=C1NCC(c2cccc(OC(F)F)c2)C1C(=O)Nc1cccc(F)c1F (stereo not drawn)", 0]
]}

Query: Identify the reported Plant response rating, Blackgrass for the following entry. O=C1NCC(c2ccc(Cl)c(F)c2)C1C(=O)Nc1cccc(F)c1F (stereo not drawn)
Response: 0

----------
- Test system: kochia
- experiment notes: Test D pre-/postemergence herbicide test
- Assay type: in vivo, Kochia scoparia
- reported conditions: Preemergence; 31 g ai/ha; scale 0 to 100 (0 no effect, 100 complete control)
Overview of reported Plant response rating, Kochia across a group of compounds:
Please give the numeric answer without any surrounding text.

{"columns": ["compound", "endpoint result"],
 "data": [
  ["O=C1NC[C@H](c2cccc(C(F)(F)F)c2)[C@H]1C(=O)Nc1ccccc1F", 20],
  ["O=C1NCC(c2ccc(F)c(F)c2)C1C(=O)Nc1ccccc1C(F)(F)F (racemic)", 0],
  ["O=C1NCC(c2ccc(C(F)(F)F)cc2)C1C(=O)Nc1cccc(F)c1F (stereo not shown)", 15]
]}

Switching to the query record.
Query: Identify the reported Plant response rating, Kochia for the following entry. O=C1NCC(c2cc(F)c(F)cc2F)C1C(=O)Nc1cccc(F)c1F (stereo not shown)
Response: 10

----------
Overview of reported Plant response rating, Blackgrass across a group of molecules:
- Test system: blackgrass
- experiment notes: Test A postemergence herbicide test
- Assay type: in vivo, Alopecurus myosuroides
- reported conditions: 125 g ai/ha, 0 to 100 scale, 0 is no effect, 100 is complete control
Please give the numeric answer without any surrounding text.

{"columns": ["molecule", "endpoint label", "endpoint result"],
 "data": [
  ["COc1ccc(NC(=O)C2C(=O)NCC2c2cccc(C(F)(F)F)c2)cc1F (racemic) [Compound 188]", "Plant response rating, Blackgrass", 0],
  ["O=C1NCC(c2cc(F)cc(F)c2)C1C(=O)Nc1ccc(F)cc1F (racemic) [Compound 156]", "Plant response rating, Blackgrass", 0],
  ["O=C1NCC(c2ccc(Cl)cc2)C1C(=O)Nc1cccc(F)c1F (stereo not drawn) [Compound 218]", "Plant response rating, Blackgrass", 20],
  ["O=C1NCC(c2cccc(S(F)(F)(F)(F)F)c2)C1C(=O)Nc1cccc(F)c1F (stereo not drawn) [Compound 214]", "Plant response rating, Blackgrass", 40],
  ["O=C1NC[C@H](c2cccc(C(F)(F)F)c2)[C@H]1C(=O)Nc1cccc(F)c1F [Compound 206]", "Plant response rating, Blackgrass", 70]
]}

Switching to the query record.
Query: Identify the reported Plant response rating, Blackgrass for the following entry. CCCN1CC(c2ccc(C(F)(F)F)cc2)C(C(=O)Nc2ccccc2F)C1=O (stereo not drawn) [Compound 181]
Response: 40
